Reference for the values: patent US20210324080A1

Biological target: T1, human CTLA-4 (Y201V), full length, on transfected cells (human, UniProt P16410 36-223)
T1 construct: whole, on cells; also called hCTLA-4; HEK293-hCTLA-4 (Y201V)
T1 sequence (looked up): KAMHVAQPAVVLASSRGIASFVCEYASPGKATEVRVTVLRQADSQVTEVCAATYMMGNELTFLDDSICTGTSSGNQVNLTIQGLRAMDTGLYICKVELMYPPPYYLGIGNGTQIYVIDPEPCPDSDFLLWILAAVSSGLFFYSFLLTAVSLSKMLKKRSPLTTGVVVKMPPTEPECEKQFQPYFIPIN
Assay: FACS, human CTLA-4 expressing cells
readout.type: MFI at 0.064 nM

[[record]]
binder = "40C4C6 fully human CTLA-4 antibody (human IgG1, kappa) (antibody, V domains shown, also called mAb09; mAb009) VH: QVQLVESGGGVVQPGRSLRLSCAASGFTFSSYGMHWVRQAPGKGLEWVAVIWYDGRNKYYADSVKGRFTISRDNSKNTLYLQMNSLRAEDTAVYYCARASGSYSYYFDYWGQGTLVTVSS VL: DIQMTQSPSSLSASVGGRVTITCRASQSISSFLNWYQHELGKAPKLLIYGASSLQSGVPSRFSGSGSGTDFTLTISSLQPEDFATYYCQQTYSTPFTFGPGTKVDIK"
assay_result = 74

